From: paper PMC6197089

MEASURED ON: SERT (serotonin reuptake pump) (Homo sapiens, UniProt P31645)
Construct: University of North Carolina Psychoactive Drug Screening Project (PDSP), contract testing
Sequence (P31645 whole entry, species assumed): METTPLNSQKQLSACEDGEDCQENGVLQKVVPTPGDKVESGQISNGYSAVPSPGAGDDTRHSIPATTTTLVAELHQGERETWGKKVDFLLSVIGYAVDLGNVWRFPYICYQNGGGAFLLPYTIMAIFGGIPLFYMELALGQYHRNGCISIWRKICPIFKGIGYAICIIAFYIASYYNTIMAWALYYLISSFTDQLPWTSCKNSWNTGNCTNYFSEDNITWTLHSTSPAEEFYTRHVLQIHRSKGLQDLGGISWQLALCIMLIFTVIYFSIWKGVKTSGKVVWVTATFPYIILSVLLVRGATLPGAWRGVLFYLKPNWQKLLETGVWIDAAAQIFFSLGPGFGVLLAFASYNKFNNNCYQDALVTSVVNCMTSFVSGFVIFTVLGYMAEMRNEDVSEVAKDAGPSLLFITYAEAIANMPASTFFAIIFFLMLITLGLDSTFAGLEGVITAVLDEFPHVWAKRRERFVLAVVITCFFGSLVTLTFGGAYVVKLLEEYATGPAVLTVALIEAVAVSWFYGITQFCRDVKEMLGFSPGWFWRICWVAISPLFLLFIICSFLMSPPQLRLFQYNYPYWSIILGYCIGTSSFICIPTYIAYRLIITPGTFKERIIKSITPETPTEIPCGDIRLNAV
ASSAY TEXT: PDSP radioligand competition binding, SERT
COND: secondary binding assay, average of n = 3
REPORTED METRIC: Ki

# Ki (compound: FC(F)(F)c1ccccc1N1CCN(Cc2ccc3c(c2)OCO3)CC1 ) is > 1 µM

# Ki (compound: FC(F)(F)c1ccc(N2CCN(Cc3cccc4c3OCO4)CC2)cc1 ) is > 1 µM

# Ki (compound: FC(F)(F)c1cccc(N2CCN(Cc3ccc4c(c3)OCO4)CC2)c1 ) is > 1 µM

# Ki (compound: FC(F)(F)c1cccc(N2CCN(Cc3cccc4c3OCO4)CC2)c1 ) is > 1 µM

# Ki (compound: FC(F)(F)c1ccccc1N1CCN(Cc2cccc3c2OCO3)CC1 ) is > 1 µM

# Ki (compound: FC(F)(F)c1ccc(N2CCN(Cc3ccc4c(c3)OCO4)CC2)cc1 ) is 0.722 µM
